subject-of-test: Mu-type opioid receptor (Cavia porcellus, UniProt P97266)
Sequence (P97266 whole entry): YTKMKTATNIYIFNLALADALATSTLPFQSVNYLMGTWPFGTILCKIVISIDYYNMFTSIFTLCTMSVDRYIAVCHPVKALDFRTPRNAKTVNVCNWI
attribute-measured: IC50

chem_smiles=CN1C(=O)[C@H](CS)N(C(=O)[C@@H](N)Cc2ccc(O)cc2)C(=O)[C@@H](C(C)(C)S)NC(=O)[C@@H]1Cc1ccccc1 subject_of_test="Mu-type opioid receptor (Cavia porcellus, UniProt P97266)" attribute_measured=IC50 result="> 30 µM"

The measured values listed here are drawn from BindingDB's records for doi:10.1021/jm00051a016.
